measurementTarget: Sphingosine kinase 2 (Mus musculus) (UniProt Q9JIA7)
Sequence (whole entry): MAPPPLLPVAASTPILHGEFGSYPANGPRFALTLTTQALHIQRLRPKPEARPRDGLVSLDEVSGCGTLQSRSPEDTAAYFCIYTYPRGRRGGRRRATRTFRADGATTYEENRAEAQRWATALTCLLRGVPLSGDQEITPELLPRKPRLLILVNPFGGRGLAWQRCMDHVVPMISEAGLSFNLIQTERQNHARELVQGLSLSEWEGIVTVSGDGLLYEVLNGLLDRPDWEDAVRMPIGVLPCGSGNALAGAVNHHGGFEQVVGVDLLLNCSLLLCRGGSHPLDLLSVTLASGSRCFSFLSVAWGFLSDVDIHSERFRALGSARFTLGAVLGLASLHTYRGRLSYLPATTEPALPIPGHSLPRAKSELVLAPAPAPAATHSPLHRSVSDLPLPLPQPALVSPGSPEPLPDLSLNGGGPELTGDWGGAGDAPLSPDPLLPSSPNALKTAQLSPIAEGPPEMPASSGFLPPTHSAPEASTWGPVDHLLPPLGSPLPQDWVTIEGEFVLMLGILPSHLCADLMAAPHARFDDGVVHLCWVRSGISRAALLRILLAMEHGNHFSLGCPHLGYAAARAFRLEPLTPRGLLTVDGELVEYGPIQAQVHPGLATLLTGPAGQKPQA
experimentNotes: Inhibition of mouse SphK2 expressed in baculovirus infected Sf9 insect cells assessed as remaining activity using sphingosine and [gamma-(32)P]-ATP at 100 uM by scintillation proximity counting
testReadout: Activity (%)
Entry rule: numbers only, all in %.

Examples with their reported Activity follow.
| compound | measurementTarget | Activity / % |
| --- | --- | --- |
| CCCCCCCCc1ccc([C@H]2CC[C@@H]([N+](C)(C)C(C)C)CC2)cc1 | Sphingosine kinase 2 (Mus musculus) (UniProt Q9JIA7) | 10.4 |
| CCCCCCCCc1ccc([C@H]2CC[C@@H](NC3CC3)CC2)cc1 | Sphingosine kinase 2 (Mus musculus) (UniProt Q9JIA7) | 116 |
| CCCCCCCCc1ccc(C2CCC(=CC(=O)OC)CC2)cc1 (stereo not given) | Sphingosine kinase 2 (Mus musculus) (UniProt Q9JIA7) | 101 |
| CCCCCCCCc1ccc([C@H]2CC[C@H](N)CC2)cc1 | Sphingosine kinase 2 (Mus musculus) (UniProt Q9JIA7) | 25 |

The compound CCCCCCCCc1ccc([C@H]2CC[C@@H](NCCO)CC2)cc1 showed Activity equal to 8.9

The compound CCCCCCCCc1ccc([C@H]2CC[C@@H](NC)CC2)cc1 showed Activity equal to 5.4

The compound CCCCCCCCc1ccc([C@H]2CC[C@H]([N+](C)(C)Cc3ccccc3)CC2)cc1 showed Activity equal to 8.3

The compound CCCCCCCCc1ccc([C@H]2CC[C@H]([N+](C)(C)CCO)CC2)cc1 showed Activity equal to 3

The compound C=CC[N+](C)(C)[C@H]1CC[C@H](c2ccc(CCCCCCCC)cc2)CC1 showed Activity equal to 2.1

The compound CCCCCCCCc1ccc([C@H]2CC[C@@H](N(C)C(C)C)CC2)cc1 showed Activity equal to 101

The compound CCCCCCCCc1ccc([C@H]2CC[C@H](NCc3ccccc3)CC2)cc1 showed Activity equal to 53.3

The compound CCCCCCCCc1ccc([C@H]2CC[C@@H](NCCC)CC2)cc1 showed Activity equal to 18.3

The compound CCCCCCCCc1ccc(C2CCC(=NO)CC2)cc1 (stereo not given) showed Activity equal to 56.5

The compound C#CCN[C@H]1CC[C@H](c2ccc(CCCCCCCC)cc2)CC1 showed Activity equal to 100

The compound CCCCCCCCc1ccc([C@H]2CC[C@@H](NCc3ccccc3)CC2)cc1 showed Activity equal to 67.2
